Catalogue of MIC readings, one per entry.
Test system: Pseudomonas aeruginosa Y-1
Assay: Minimum inhibitory concentration (MIC)
Type: cell-based
Settings: Y1; Pseudomonas aeruginosa Y-1; bacterial suspension 10^6 cells/ml; sodium salts tested; read-out: Minimum inhibitory concentration
Express your answer in µg/mL, writing the number without its unit.

Completed entries (count: 2):
CC(=O)OCC1=C(C(=O)O)N2C(=O)[C@@H](NC(=O)C(NC(=O)c3ccccc3O)c3csc(N)n3)[C@H]2SC1 (mixture of isomers) ... 100
Cn1nnnc1SCC1=C(C(=O)O)N2C(=O)[C@@H](NC(=O)C(NC(=O)c3ccc(O)c(O)c3)c3csc(N)n3)[C@H]2SC1 (mixture of isomers) ... 0.2

Input line: Find the recorded MIC belonging to CC(=O)OCC1=C(C(=O)O)N2C(=O)[C@@H](NC(=O)C(NC(=O)c3ccccc3OC(C)=O)c3csc(N)n3)[C@H]2SC1 (mixture of isomers) and report it.
Output line: 50

Input line: Field request: MIC | item: CO[C@@]1(NC(=O)C(NC(=O)c2cccc(OC(C)=O)c2OC(C)=O)c2csc(N)n2)C(=O)N2C(C(=O)O)=C(COC(C)=O)CS[C@@H]21 (mixture of isomers)
Output line: 3.12

Input line: Looking for the measured MIC of CO[C@@]1(NC(=O)C(NC(=O)c2ccc(O)c(O)c2)c2csc(N)n2)C(=O)N2C(C(=O)O)=C(COC(C)=O)CS[C@@H]21 (mixture of isomers) , can you help?
Output line: 0.39

Input line: // query MIC value for entry CO[C@@]1(NC(=O)C(NC(=O)c2ccc(OC(C)=O)c(OC(C)=O)c2)c2csc(N)n2)C(=O)N2C(C(=O)O)=C(COC(C)=O)CS[C@@H]21 (mixture of isomers)
Output line: 0.78

Input line: Tell me the measured MIC of CC(=O)OCC1=C(C(=O)O)N2C(=O)[C@@H](NC(=O)C(NC(=O)c3cc(O)c(O)c(O)c3)c3csc(N)n3)[C@H]2SC1 (mixture of isomers) , please.
Output line: 0.1

Input line: Quick one: MIC for CC(=O)OCC1=C(C(=O)O)N2C(=O)[C@@H](NC(=O)C(NC(=O)c3ccc(O)c(O)c3)c3csc(N)n3)[C@H]2SC1 (mixture of isomers) ?
Output line: 0.05

Input line: Entry CC(=O)OCC1=C(C(=O)O)N2C(=O)[C@@H](NC(=O)C(NC(=O)c3cccc(OC(C)=O)c3OC(C)=O)c3csc(N)n3)[C@H]2SC1 (mixture of isomers) : reported MIC = ?
Output line: 0.2

---

Tested on: Escherichia coli NIHJ JC-2
Assay: Minimum inhibitory concentration (MIC)
Format: cell-based
Conditions: NIHJJC2; Escherichia coli NIHJ JC-2; bacterial suspension 10^6 cells/ml; sodium salts tested; read-out: Minimum inhibitory concentration
Each entry below lists one item and its recorded MIC value.
The reply should be a number in µg/mL, with the unit left off.

Some solved entries appear below for comparison.
CC(=O)OCC1=C(C(=O)O)N2C(=O)[C@@H](NC(=O)C(NC(=O)c3cccc(O)c3)c3csc(N)n3)[C@H]2SC1 (mixture of isomers) ... 6.25
CO[C@@]1(NC(=O)C(NC(=O)c2ccc(O)c(O)c2)c2csc(N)n2)C(=O)N2C(C(=O)O)=C(CSc3nnnn3C)CS[C@@H]21 (mixture of isomers) ... 6.25

Input line: What MIC value was documented for this compound, CC(=O)OCC1=C(C(=O)O)N2C(=O)[C@@H](NC(=O)C(NC(=O)c3ccc(O)cc3)c3csc(N)n3)[C@H]2SC1 (mixture of isomers) ?
Output line: 3.12

Input line: I would be grateful if you could share the reported MIC for CO[C@@]1(NC(=O)C(NC(=O)c2ccc(O)c(O)c2)c2csc(N)n2)C(=O)N2C(C(=O)O)=C(COC(C)=O)CS[C@@H]21 (mixture of isomers) .
Output line: 12.5

Input line: Fill in: MIC of CO[C@@]1(NC(=O)C(NC(=O)c2cc(OC(C)=O)c(OC(C)=O)c(OC(C)=O)c2)c2csc(N)n2)C(=O)N2C(C(=O)O)=C(COC(C)=O)CS[C@@H]21 (mixture of isomers) is ___
Output line: 12.5

Input line: # input compound: CC(=O)OCC1=C(C(=O)O)N2C(=O)[C@@H](NC(=O)C(NC(=O)c3cccc(OC(C)=O)c3OC(C)=O)c3csc(N)n3)[C@H]2SC1 (mixture of isomers) ; wanted: its MIC
Output line: 1.56

Input line: Report MIC for CCOC(=O)Oc1ccc(C(=O)NC(C(=O)N[C@@H]2C(=O)N3C(C(=O)O)=C(COC(C)=O)CS[C@H]23)c2csc(N)n2)cc1OC(=O)OCC (mixture of isomers) please.
Output line: 0.39

Input line: Which MIC is reported for this compound? CCOC(=O)Oc1ccc(C(=O)NC(C(=O)N[C@@H]2C(=O)N3C(C(=O)O)=C(CSc4nnnn4C)CS[C@H]23)c2csc(N)n2)cc1OC(=O)OCC (mixture of isomers)
Output line: 0.78

Input line: So what's the measured MIC for this one? CC(=O)OCC1=C(C(=O)O)N2C(=O)[C@@H](NC(=O)C(NC(=O)c3cc(O)c(O)c(O)c3)c3csc(N)n3)[C@H]2SC1 (mixture of isomers)
Output line: 0.2

Input line: For the compound CC(=O)OCC1=C(C(=O)O)N2C(=O)[C@@H](NC(=O)C(NC(=O)c3cc(OC(C)=O)c(OC(C)=O)c(OC(C)=O)c3)c3csc(N)n3)[C@H]2SC1 (mixture of isomers) , what MIC is on record?
Output line: 0.39

---

System: Pseudomonas aeruginosa Y-1
Test: Minimum inhibitory concentration (MIC)
Type: cell-based
Details: Y1; Pseudomonas aeruginosa Y-1; bacterial suspension 10^6 cells/ml; sodium salts tested; read-out: Minimum inhibitory concentration
observable: MIC (µg/mL)
Field format: number, assumed µg/mL, no unit text.

CCOC(=O)Oc1ccc(C(=O)NC(C(=O)N[C@]2(OC)C(=O)N3C(C(=O)O)=C(COC(C)=O)CS[C@@H]32)c2csc(N)n2)cc1OC(=O)OCC (mixture of isomers) ... 0.78
CC(=O)OCC1=C(C(=O)O)N2C(=O)[C@@H](NC(=O)C(NC(=O)c3cccc(O)c3O)c3csc(N)n3)[C@H]2SC1 (mixture of isomers) ... 3.12
CCOC(=O)Oc1ccc(C(=O)NC(C(=O)N[C@@H]2C(=O)N3C(C(=O)O)=C(COC(C)=O)CS[C@H]23)c2csc(N)n2)cc1OC(=O)OCC (mixture of isomers) ... 0.05
CO[C@@]1(NC(=O)C(NC(=O)c2cc(OC(C)=O)c(OC(C)=O)c(OC(C)=O)c2)c2csc(N)n2)C(=O)N2C(C(=O)O)=C(COC(C)=O)CS[C@@H]21 (mixture of isomers) ... 0.78

Next up:
Input line: Please give the measured MIC for this molecule: CC(=O)OCC1=C(C(=O)O)N2C(=O)[C@@H](NC(=O)C(NC(=O)c3cc(OC(C)=O)c(OC(C)=O)c(OC(C)=O)c3)c3csc(N)n3)[C@H]2SC1 (mixture of isomers)
Output line: 0.78

---

Property: MIC; scope: individual compounds
Tested on: Escherichia coli NIHJ JC-2
Experiment: Minimum inhibitory concentration (MIC)
Assay type: cell-based
Conditions: NIHJJC2; Escherichia coli NIHJ JC-2; bacterial suspension 10^6 cells/ml; sodium salts tested; read-out: Minimum inhibitory concentration
State the answer as a number, implicitly in µg/mL.

CC(=O)OCC1=C(C(=O)O)N2C(=O)[C@@H](NC(=O)C(NC(=O)c3ccc(O)c(O)c3)c3csc(N)n3)[C@H]2SC1 (mixture of isomers) ... 0.39
CC(=O)OCC1=C(C(=O)O)N2C(=O)[C@@H](NC(=O)C(NC(=O)c3ccccc3O)c3csc(N)n3)[C@H]2SC1 (mixture of isomers) ... 3.12
CC(=O)OCC1=C(C(=O)O)N2C(=O)[C@@H](NC(=O)C(NC(=O)c3cccc(O)c3O)c3csc(N)n3)[C@H]2SC1 (mixture of isomers) ... 1.56
CC(=O)OCC1=C(C(=O)O)N2C(=O)[C@@H](NC(=O)C(NC(=O)c3ccc(OC(C)=O)cc3)c3csc(N)n3)[C@H]2SC1 (mixture of isomers) ... 0.78

Could you now look at the following compound, please?
Input line: Could you share which MIC value was measured for CO[C@@]1(NC(=O)C(NC(=O)c2ccc(OC(C)=O)c(OC(C)=O)c2)c2csc(N)n2)C(=O)N2C(C(=O)O)=C(CSc3nnnn3C)CS[C@@H]21 (mixture of isomers) ?
Output line: 6.25

---

Tested on: Escherichia coli NIHJ JC-2
Test: Minimum inhibitory concentration (MIC)
Type: cell-based
Conditions: NIHJJC2; Escherichia coli NIHJ JC-2; bacterial suspension 10^6 cells/ml; sodium salts tested; read-out: Minimum inhibitory concentration
observable: MIC (µg/mL)
Form entry: value (µg/mL) — number only.

CC(=O)Oc1cc(C(=O)NC(C(=O)N[C@@H]2C(=O)N3C(C(=O)O)=C(CSc4nnnn4C)CS[C@H]23)c2csc(N)n2)cc(OC(C)=O)c1OC(C)=O (mixture of isomers) ... 0.78
Cn1nnnc1SCC1=C(C(=O)O)N2C(=O)[C@@H](NC(=O)C(NC(=O)c3ccc(O)c(O)c3)c3csc(N)n3)[C@H]2SC1 (mixture of isomers) ... 0.78
CC(=O)OCC1=C(C(=O)O)N2C(=O)[C@@H](NC(=O)C(NC(=O)c3ccccc3OC(C)=O)c3csc(N)n3)[C@H]2SC1 (mixture of isomers) ... 1.56

Here is another molecule to look at.
Input line: Return reported MIC; argument: CO[C@@]1(NC(=O)C(NC(=O)c2cc(OC(C)=O)c(OC(C)=O)c(OC(C)=O)c2)c2csc(N)n2)C(=O)N2C(C(=O)O)=C(CSc3nnnn3C)CS[C@@H]21 (mixture of isomers)
Output line: 6.25
